- System: MDA-MB-453
- ASSAY: normalised viability (% of control), CellTiter-Blue; higher = more viable cells (about 100 = DMSO control)
- TEST CONDITIONS: 30 nM; incubation time: 72 h
MEASUREMENT TYPE: normalised viability (%)
Express your answer in %, writing the number without its unit.

Notebook: CCc1cncnc1N1CCN(Cc2nc3ccc(C(F)(F)F)cc3[nH]2)CC1 , normalised viability read as 110

The recorded normalised viability for entry C1CN1c1nc(N2CC2)nc(N2CC2)n1 equals 102

Reported normalised viability of C=CC(=O)Nc1cc2c(Nc3ccc(F)c(Cl)c3)ncnc2cc1OCCCN1CCOCC1 : 86.9

Just so you know, measured normalised viability for COc1cc([C@@H]2c3cc4c(cc3[C@@H](O[C@@H]3O[C@@H]5CO[C@@H](c6cccs6)O[C@H]5[C@H](O)[C@H]3O)[C@H]3COC(=O)[C@H]23)OCO4)cc(OC)c1O [Teniposide] came out at 92.8
